# Protocol Description: Selectivity ratio of IC50 for chinese hamster V79 cells to IC50 for human MDA-MB-435 cells
# Assay type: ADME, cell-based
# Condition Label: V79 cells versus MDA-MB-435 cells, read-out: Ratio IC50
Attribute Measured: selectivity ratio
Answers are plain numbers.

Query block: Please list selectivity ratio recorded for the compound CC1(C)OC2=C(CC1[Se]c1ccc(Br)cc1)C(=O)C(=O)c1ccccc12 (stereo unspecified)
Result block: 1.7

----------
# Protocol Description: Selectivity ratio of IC50 for human PBMC to IC50 for human HCT116 cells
# Format: ADME, cell-based, HCT-116
# Condition Label: PBMC versus HCT116 cells, read-out: Ratio IC50
Please go through the items and note down their selectivity ratio.
Give bare numbers.

molecule="CC1(C)OC2=C(CC1[Se]c1ccc(Br)cc1)C(=O)C(=O)c1ccccc12 (stereo not drawn)" experimental_value=1.7
molecule="CCSC1CC2=C(OC1(C)C)c1ccccc1C(=O)C2=O (stereo not drawn)" experimental_value=2.1

Note: attention shifts to another entry.
Query block: Please list selectivity ratio recorded for the molecule CC1(C)OC2=C(CC1Sc1cccc(Cl)c1)C(=O)C(=O)c1ccccc12 (stereo not drawn)
Result block: 2.6

----------
# Protocol Description: Selectivity ratio of IC50 for chinese hamster V79 cells to IC50 for human SF295 cells
# Assay type: ADME, cell-based, SF-295
# Condition Label: V79 cells versus SF295 cells, read-out: Ratio IC50
Please go through the items and note down their selectivity ratio.

Some molecules with recorded selectivity ratio:
molecule="CC1(C)OC2=C(CC1[Se]c1ccc(Br)cc1)C(=O)C(=O)c1ccccc12 (stereo not drawn)" attribute_measured="selectivity ratio" experimental_value=2.3
molecule="CC1(C)OC2=C(CC1Sc1cccc(Cl)c1)C(=O)C(=O)c1ccccc12 (stereo not drawn)" attribute_measured="selectivity ratio" experimental_value=2.2

Note: attention shifts to another entry.
Query block: Please list selectivity ratio recorded for the molecule CCSC1CC2=C(OC1(C)C)c1ccccc1C(=O)C2=O (stereo not drawn)
Result block: 1.1

----------
Please go through the items and note down their selectivity ratio.
# Protocol Description: Selectivity ratio of IC50 for mouse L929 cells to IC50 for human SF295 cells
# Assay type: ADME, cell-based
# Condition Label: L929 cells versus SF295 cells, read-out: Ratio IC50
Give bare numbers.

compound="CC1(C)OC2=C(CC1[Se]c1ccc(Br)cc1)C(=O)C(=O)c1ccccc12 (stereo not drawn)" experimental_value=1.5
compound="CCSC1CC2=C(OC1(C)C)c1ccccc1C(=O)C2=O (stereo not drawn)" experimental_value=1

Query block: Please list selectivity ratio recorded for the compound CC1(C)OC2=C(CC1Sc1cccc(Cl)c1)C(=O)C(=O)c1ccccc12 (stereo not drawn)
Result block: 2.6

----------
Please go through the items and note down their selectivity ratio.
# Protocol Description: Selectivity ratio of IC50 for chinese hamster V79 cells to IC50 for human OVCAR8 cells
# Format: ADME, cell-based, OVCAR-8
# Condition Label: V79 cells versus OVCAR8 cells, read-out: Ratio IC50

molecule="CC1(C)OC2=C(CC1[Se]c1ccccc1)C(=O)C(=O)c1ccccc12 (stereo not drawn)" experimental_value=1.4
molecule="CC1(C)OC2=C(CC1[Se]c1ccc(Br)cc1)C(=O)C(=O)c1ccccc12 (stereo not drawn)" experimental_value=1.4

Query block: Please list selectivity ratio recorded for the molecule CCSC1CC2=C(OC1(C)C)c1ccccc1C(=O)C2=O (stereo not drawn)
Result block: 1.3

----------
Please go through the items and note down their selectivity ratio.
# Protocol Description: Selectivity ratio of IC50 for human PBMC to IC50 for human MOLT4 cells
# Type: ADME, cell-based, MOLT-4
# Condition Label: PBMC versus MOLT4 cells, read-out: Ratio IC50
Give bare numbers.

compound="CC1(C)OC2=C(CC1[Se]c1ccc(Br)cc1)C(=O)C(=O)c1ccccc12 (centres undefined)" attribute_measured="selectivity ratio" experimental_value=1.7
compound="CCSC1CC2=C(OC1(C)C)c1ccccc1C(=O)C2=O (centres undefined)" attribute_measured="selectivity ratio" experimental_value=2.7
compound="CC1(C)OC2=C(CC1Sc1cccc(Cl)c1)C(=O)C(=O)c1ccccc12 (centres undefined)" attribute_measured="selectivity ratio" experimental_value=2

Note: attention shifts to another entry.
Query block: Please list selectivity ratio recorded for the compound CC1(C)OC2=C(CC1[Se]c1cccc(C(F)(F)F)c1)C(=O)C(=O)c1ccccc12 (centres undefined)
Result block: 8.7

----------
# Protocol Description: Selectivity ratio of IC50 for MDCK cells to IC50 for human HL60 cells
# Assay type: ADME, cell-based
# Condition Label: dog (MDCK), MDCK cells versus HL60 cells, read-out: Ratio IC50
Attribute Measured: selectivity ratio
One number for each entry.

Some compounds with recorded selectivity ratio:
compound="CC1(C)OC2=C(CC1[Se]c1cccc(C(F)(F)F)c1)C(=O)C(=O)c1ccccc12 (centres undefined)" experimental_value=5.6
compound="CC1(C)OC2=C(CC1Sc1cccc(Cl)c1)C(=O)C(=O)c1ccccc12 (centres undefined)" experimental_value=1.5
compound="CCSC1CC2=C(OC1(C)C)c1ccccc1C(=O)C2=O (centres undefined)" experimental_value=1.7

Note: attention shifts to another entry.
Query block: Please list selectivity ratio recorded for the compound CC1(C)OC2=C(CC1[Se]c1ccc(Br)cc1)C(=O)C(=O)c1ccccc12 (centres undefined)
Result block: 1.1

----------
# Protocol Description: Selectivity ratio of IC50 for MDCK cells to IC50 for human SF295 cells
# Type: ADME, cell-based, SF-295
# Condition Label: dog (MDCK), MDCK cells versus SF295 cells, read-out: Ratio IC50
Please go through the items and note down their selectivity ratio.
Answers are plain numbers.

Some molecules with recorded selectivity ratio:
molecule="CCSC1CC2=C(OC1(C)C)c1ccccc1C(=O)C2=O (stereo not drawn)" attribute_measured="selectivity ratio" experimental_value=1.4
molecule="CC1(C)OC2=C(CC1[Se]c1ccc(Br)cc1)C(=O)C(=O)c1ccccc12 (stereo not drawn)" attribute_measured="selectivity ratio" experimental_value=1

Query block: Please list selectivity ratio recorded for the molecule CC1(C)OC2=C(CC1Sc1cccc(Cl)c1)C(=O)C(=O)c1ccccc12 (stereo not drawn)
Result block: 1.6

----------
Please go through the items and note down their selectivity ratio.
# Protocol Description: Selectivity ratio of IC50 for mouse L929 cells to IC50 for human MOLT4 cells
# Type: ADME, cell-based
# Condition Label: L929 cells versus MOLT4 cells, read-out: Ratio IC50
One number for each entry.

Some compounds with recorded selectivity ratio:
compound="CC1(C)OC2=C(CC1[Se]c1cccc(C(F)(F)F)c1)C(=O)C(=O)c1ccccc12 (centres undefined)" attribute_measured="selectivity ratio" experimental_value=5
compound="CC1(C)OC2=C(CC1Sc1cccc(Cl)c1)C(=O)C(=O)c1ccccc12 (centres undefined)" attribute_measured="selectivity ratio" experimental_value=1.5
compound="CCSC1CC2=C(OC1(C)C)c1ccccc1C(=O)C2=O (centres undefined)" attribute_measured="selectivity ratio" experimental_value=1.5

Note: attention shifts to another entry.
Query block: Please list selectivity ratio recorded for the compound CC1(C)OC2=C(CC1[Se]c1ccc(Br)cc1)C(=O)C(=O)c1ccccc12 (centres undefined)
Result block: 1.3

----------
Please go through the items and note down their selectivity ratio.
# Protocol Description: Selectivity ratio of IC50 for MDCK cells to IC50 for human OVCAR3 cells
# Format: ADME, cell-based, OVCAR-3
# Condition Label: dog (MDCK), MDCK cells versus OVCAR3 cells, read-out: Ratio IC50
Give bare numbers.

The following compounds each have a reported value; give each one's selectivity ratio.
1. CC1(C)OC2=C(CC1[Se]c1ccc(Br)cc1)C(=O)C(=O)c1ccccc12 (centres undefined)
2. CCSC1CC2=C(OC1(C)C)c1ccccc1C(=O)C2=O (centres undefined)
3. CC1(C)OC2=C(CC1Sc1cccc(Cl)c1)C(=O)C(=O)c1ccccc12 (centres undefined)
4. CC1(C)OC2=C(CC1[Se]c1ccccc1)C(=O)C(=O)c1ccccc12 (centres undefined)

Result block:
[0.8, 1.4, 1.1, 1]

----------
# Protocol Description: Selectivity ratio of IC50 for MDCK cells to IC50 for human MDA-MB-435 cells
# Type: ADME, cell-based
# Condition Label: dog (MDCK), MDCK cells versus MDA-MB-435 cells, read-out: Ratio IC50
Attribute Measured: selectivity ratio
Numbers only.

Query block: Please list selectivity ratio recorded for the molecule CC1(C)OC2=C(CC1[Se]c1ccc(Br)cc1)C(=O)C(=O)c1ccccc12 (stereo unspecified)
Result block: 0.8

----------
# Protocol Description: Selectivity ratio of IC50 for human PBMC to IC50 for human HL60 cells
# Assay type: ADME, cell-based, HL-60
# Condition Label: PBMC versus HL60 cells, read-out: Ratio IC50
Please go through the items and note down their selectivity ratio.
One number for each entry.

Some compounds with recorded selectivity ratio:
compound="CCSC1CC2=C(OC1(C)C)c1ccccc1C(=O)C2=O (centres undefined)" experimental_value=2.2
compound="CC1(C)OC2=C(CC1[Se]c1ccc(Br)cc1)C(=O)C(=O)c1ccccc12 (centres undefined)" experimental_value=2.1
compound="CC1(C)OC2=C(CC1[Se]c1cccc(C(F)(F)F)c1)C(=O)C(=O)c1ccccc12 (centres undefined)" experimental_value=12

Query block: Please list selectivity ratio recorded for the compound CC1(C)OC2=C(CC1Sc1cccc(Cl)c1)C(=O)C(=O)c1ccccc12 (centres undefined)
Result block: 3.2
